System Name: hGLP-1R (Homo sapiens, UniProt P43220)
Sequence (P43220 24-463): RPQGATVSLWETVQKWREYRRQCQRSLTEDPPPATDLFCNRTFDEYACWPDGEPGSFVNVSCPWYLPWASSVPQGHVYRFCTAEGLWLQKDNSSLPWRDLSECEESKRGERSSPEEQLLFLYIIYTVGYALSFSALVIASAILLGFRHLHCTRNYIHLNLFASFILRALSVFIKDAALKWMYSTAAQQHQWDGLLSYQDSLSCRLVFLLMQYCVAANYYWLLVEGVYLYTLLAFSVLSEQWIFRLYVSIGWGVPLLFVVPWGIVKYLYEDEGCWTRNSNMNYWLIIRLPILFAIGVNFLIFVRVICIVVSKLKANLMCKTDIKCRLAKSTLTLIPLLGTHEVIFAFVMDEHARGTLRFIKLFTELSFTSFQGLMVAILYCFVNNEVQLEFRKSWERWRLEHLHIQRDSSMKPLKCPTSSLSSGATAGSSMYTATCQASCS
Test Protocol: cell-based or functional assay
Starred links: 1 amine or outer side, 2 acyl side, 3 side chain; linkers in the order of their positions; H or OH if unused. Non-standard residues stand in square brackets, D forms with d. Groups on a side chain read outwards from the residue. No end group written: not given here. *: point of attachment. C18 diacid = O=C(O)CCCCCCCCCCCCCCCCC(=O)*; γGlu = O=C(O)[C@H](CCC(=O)[*:2])N[*:1]; αMe4Pal = C[C@](N)(Cc1ccncc1)C(=O)O; 4Pal = N[C@@H](Cc1ccncc1)C(=O)O; αMeL = CC(C)C[C@](C)(N)C(=O)O; Orn = NCCC[C@H](N)C(=O)O; Dab = NCC[C@H](N)C(=O)O; Aib = CC(C)(N)C(=O)O
Values of Relative cAMP EC50 strictly less than 2 nM map to true (1), and values of at least 2 nM map to false (0).

Binder	Assigned Category
YXQGTFTSDXSQXLDKKAQXAFIEYLIEXGESSGAPPPSGE (Aib, 4Pal, αMeL, αMe4Pal; K acylated AEEA-γGlu-C18 diacid; amide; synthetic construct; SITE 2: note = 2-Aminoisobutyric Acid; SITE 10: note = 3-(4-Pyridyl)-L-alanine; SITE 13: note = alpha-methyl-leucine; SITE 17: note = Lysine is chemically modified through conjugation of the epsilon-amino group of the Lysine side chain with (2-[2-(2-Amino-ethoxy)-ethoxy]-acetyl)) [Example 227]	false (0)

Could you please tell me whether Relative cAMP EC50 recorded for Y[Aib]QGTFTSD[4Pal]S[Dab][αMeL]LD[Orn]K([γGlu-γGlu-C18 diacid])AQ[Aib]AFIE[αMe4Pal]LLAGGPSSGAPPPEGSEE-NH2 [Example 1054] is less than 2 nM?
false (0)

Could you please tell me whether Relative cAMP EC50 recorded for YXQGTFTSDFSXXLDKKAQXAFIEYLLAGGTSSGEPPPSGE (synthetic construct; SITE 2: note = 2-Aminoisobutyric Acid; SITE 12: note = L-ornithine; SITE 13: note = alpha-methyl-leucine; SITE 17: note = Lysine is chemically modified through conjugation of the epsilon-amino group of the Lysine side chain with (2-[2-(2-Amino-ethoxy)-ethoxy]-acetyl)-(gamma-Glu)) [Example 106] is less than 2 nM?
false (0)

Could you please tell me whether Relative cAMP EC50 recorded for YXQGTFTSDFSKXLDKKAQXAFIEYLLAGGPSSGAPPPGGS (Aib, αMeL; acylated Lys; C-terminal amide; synthetic construct; SITE 2: note = 2-Aminoisobutyric Acid; SITE 13: note = alpha-methyl-leucine; SITE 17: note = Lysine is chemically modified through conjugation of the epsilon-amino group of the Lysine side chain with (2-[2-(2-Amino-ethoxy)-ethoxy]-acetyl)-(gamma-Glu)-CO-(CH2) 18-CO2H; SITE 20: n) [Example 16] is less than 2 nM?
true (1)
